pIC50 overview
- Tested on: 242566-281-R-J2-PDC complex spheroid viability
- procedureDetails: Anticancer human tumor 242566-281-R-J2-PDC patient-derived pancreatic carcinoma cell line growth inhibition [CLK]
- testSettings: curve of first compound; second compound 3.16 µM
pIC50: −log10 of the molar value.

compound | measurementTarget | pIC50
CC(Nc1ccc2c(c1)OCCn1cc(N3C(=O)OCC3C(F)F)nc1-2)C(N)=O (centres undefined) + CNC(=O)c1ccc(Nc2nc(OC3CCCC3)c3c(-c4ccc5nc(C)oc5c4)c[nH]c3n2)c(OC)c1 | 242566-281-R-J2-PDC complex spheroid viability | > 7.50
CC(=O)O[C@H]1C(=O)[C@@]2(C)[C@H]([C@H](OC(=O)c3ccccc3)[C@]3(O)C[C@H](OC(=O)[C@H](O)[C@@H](NC(=O)c4ccccc4)c4ccccc4)C(C)=C1C3(C)C)[C@]1(OC(C)=O)CO[C@@H]1C[C@@H]2O + CN1CCN(c2cc(C(=O)Nc3cc4cc(-c5cnn(C)c5)ccc4cn3)ccn2)CC1 | 242566-281-R-J2-PDC complex spheroid viability | > 7.50
O=C(c1cc(Cc2n[nH]c(=O)c3ccccc23)ccc1F)N1CCN(C(=O)C2CC2)CC1 + CN1CCN(c2cc(C(=O)Nc3cc4cc(-c5cnn(C)c5)ccc4cn3)ccn2)CC1 | 242566-281-R-J2-PDC complex spheroid viability | > 7.50
C=CC(=O)N1CCN(c2nc(=O)n(-c3c(C)ccnc3C(C)C)c3nc(-c4c(O)cccc4F)c(F)cc23)C(C)C1 (centres undefined) + CNC(=O)c1ccc(Nc2nc(OC3CCCC3)c3c(-c4ccc5nc(C)oc5c4)c[nH]c3n2)c(OC)c1 | 242566-281-R-J2-PDC complex spheroid viability | < 5.00

###

- Tested on: 242566-281-R-J2-PDC complex spheroid viability
- procedureDetails: Anticancer human tumor 242566-281-R-J2-PDC cell line growth inhibition [CLK];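 also: spheroids exposed to compounds for 7 days before readout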;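 as to viability, T/C: 100% = DMSO vehicle control wells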
- testSettings: second compound 3.16 µM; first compound 0.316 µM; stronger effect = lower value
Could you please mark Met for values of viability, T/C below 20% and Not met for values at or above it?

molecule | classification
C#Cc1c(F)ccc2cc(O)cc(-c3ncc4c(N5CC6CCC(C5)N6)nc(OCC56CCCN5CC(F)C6)nc4c3F)c12 (centres undefined) + CN1CCN(c2cc(C(=O)Nc3cc4cc(-c5cnn(C)c5)ccc4cn3)ccn2)CC1 | Met
CCCS(=O)(=O)Nc1ccc(F)c(C(=O)c2c[nH]c3ncc(-c4ccc(Cl)cc4)cc23)c1F + CNC(=O)c1ccc(Nc2nc(OC3CCCC3)c3c(-c4ccc5nc(C)oc5c4)c[nH]c3n2)c(OC)c1 | Not met
COC1C=CCC(C)C(C)S(=O)(=O)NC(=O)c2ccc3c(c2)N(CC2CCC21)CC1(CCCc2cc(Cl)ccc21)CO3 (centres undefined) + CNC(=O)c1ccc(Nc2nc(OC3CCCC3)c3c(-c4ccc5nc(C)oc5c4)c[nH]c3n2)c(OC)c1 | Not met
COc1c(OCCCN2CCOCC2)ccc2c3n(c(=NC(=O)c4cnc(N)nc4)nc12)CCN3 + CNC(=O)c1ccc(Nc2nc(OC3CCCC3)c3c(-c4ccc5nc(C)oc5c4)c[nH]c3n2)c(OC)c1 | Met
C=C(F)C(=O)N1CCN(c2nc(OCC3CCCN3C)nc3c2CCN(c2cccc4cccc(Cl)c24)C3)CC1CC#N (centres undefined) + CN1CCN(c2cc(C(=O)Nc3cc4cc(-c5cnn(C)c5)ccc4cn3)ccn2)CC1 | Met
Nc1ccn(C2OC(CO)C(O)C2(F)F)c(=O)n1 (centres undefined) + CNC(=O)c1ccc(Nc2nc(OC3CCCC3)c3c(-c4ccc5nc(C)oc5c4)c[nH]c3n2)c(OC)c1 | Met
C=CC(=O)N1CCN(c2nc(=O)n(-c3c(C)ccnc3C(C)C)c3nc(-c4c(O)cccc4F)c(F)cc23)C(C)C1 (centres undefined) + CN1CCN(c2cc(C(=O)Nc3cc4cc(-c5cnn(C)c5)ccc4cn3)ccn2)CC1 | Met
COc1ccc([C@@H](O)c2cc(-c3ncnc4cc(N5CCOCC5)ccc34)c(F)cc2Cl)nn1 + CN1CCN(c2cc(C(=O)Nc3cc4cc(-c5cnn(C)c5)ccc4cn3)ccn2)CC1 | Met
CCCS(=O)(=O)Nc1ccc(F)c(C(=O)c2c[nH]c3ncc(-c4ccc(Cl)cc4)cc23)c1F + CN1CCN(c2cc(C(=O)Nc3cc4cc(-c5cnn(C)c5)ccc4cn3)ccn2)CC1 | Met
CCc1c2c(nc3ccc(O)cc13)-c1cc3c(c(=O)n1C2)COC(=O)[C@]3(O)CC + CNC(=O)c1ccc(Nc2nc(OC3CCCC3)c3c(-c4ccc5nc(C)oc5c4)c[nH]c3n2)c(OC)c1 | Met
CC(Nc1ccc2c(c1)OCCn1cc(N3C(=O)OCC3C(F)F)nc1-2)C(N)=O (centres undefined) + CNC(=O)c1ccc(Nc2nc(OC3CCCC3)c3c(-c4ccc5nc(C)oc5c4)c[nH]c3n2)c(OC)c1 | Not met
CC(=O)O[C@H]1C(=O)[C@@]2(C)[C@H]([C@H](OC(=O)c3ccccc3)[C@]3(O)C[C@H](OC(=O)[C@H](O)[C@@H](NC(=O)c4ccccc4)c4ccccc4)C(C)=C1C3(C)C)[C@]1(OC(C)=O)CO[C@@H]1C[C@@H]2O + CN1CCN(c2cc(C(=O)Nc3cc4cc(-c5cnn(C)c5)ccc4cn3)ccn2)CC1 | Met
O=c1[nH]cc(F)c(=O)[nH]1 + CN1CCN(c2cc(C(=O)Nc3cc4cc(-c5cnn(C)c5)ccc4cn3)ccn2)CC1 | Met
O=C(c1cc(Cc2n[nH]c(=O)c3ccccc23)ccc1F)N1CCN(C(=O)C2CC2)CC1 + CNC(=O)c1ccc(Nc2nc(OC3CCCC3)c3c(-c4ccc5nc(C)oc5c4)c[nH]c3n2)c(OC)c1 | Not met
Nc1ccn(C2OC(CO)C(O)C2(F)F)c(=O)n1 (centres undefined) + CN1CCN(c2cc(C(=O)Nc3cc4cc(-c5cnn(C)c5)ccc4cn3)ccn2)CC1 | Met
CCc1c2c(nc3ccc(O)cc13)-c1cc3c(c(=O)n1C2)COC(=O)[C@]3(O)CC + CN1CCN(c2cc(C(=O)Nc3cc4cc(-c5cnn(C)c5)ccc4cn3)ccn2)CC1 | Met
CC1(C)CCC(CN2CCN(c3ccc(C(=O)NS(=O)(=O)c4ccc(NCC5CCOCC5)c([N+](=O)[O-])c4)c(Oc4cnc5[nH]ccc5c4)c3)CC2)=C(c2ccc(Cl)cc2)C1 + CN1CCN(c2cc(C(=O)Nc3cc4cc(-c5cnn(C)c5)ccc4cn3)ccn2)CC1 | Met
CC(=O)O[C@H]1C(=O)[C@@]2(C)[C@H]([C@H](OC(=O)c3ccccc3)[C@]3(O)C[C@H](OC(=O)[C@H](O)[C@@H](NC(=O)c4ccccc4)c4ccccc4)C(C)=C1C3(C)C)[C@]1(OC(C)=O)CO[C@@H]1C[C@@H]2O + CNC(=O)c1ccc(Nc2nc(OC3CCCC3)c3c(-c4ccc5nc(C)oc5c4)c[nH]c3n2)c(OC)c1 | Not met
CC1COCCN1c1cc(C2(S(C)(=N)=O)CC2)nc(-c2ccnc3[nH]ccc23)n1 (centres undefined) + CNC(=O)c1ccc(Nc2nc(OC3CCCC3)c3c(-c4ccc5nc(C)oc5c4)c[nH]c3n2)c(OC)c1 | Not met

###

- Test system: 242566-281-R-J2-PDC complex spheroid viability
- procedureDetails: Anticancer human tumor 242566-281-R-J2-PDC cell line growth inhibition [CLK];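 also: spheroids exposed to compounds for 7 days before readout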;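 as to viability, T/C: 100% = DMSO vehicle control wells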
- testSettings: second compound 3.16 µM; first compound 0.316 µM; stronger effect = lower value
Entries and their measured viability, T/C follow.

molecule | viability, T/C, %
COc1ccc([C@@H](O)c2cc(-c3ncnc4cc(N5CCOCC5)ccc34)c(F)cc2Cl)nn1 + CNC(=O)c1ccc(Nc2nc(OC3CCCC3)c3c(-c4ccc5nc(C)oc5c4)c[nH]c3n2)c(OC)c1 | 47.2
COc1c(OCCCN2CCOCC2)ccc2c3n(c(=NC(=O)c4cnc(N)nc4)nc12)CCN3 + CN1CCN(c2cc(C(=O)Nc3cc4cc(-c5cnn(C)c5)ccc4cn3)ccn2)CC1 | 3.56
CCN1CCN(Cc2ccc(Nc3ncc(F)c(-c4cc(F)c5nc(C)n(C(C)C)c5c4)n3)nc2)CC1 + CN1CCN(c2cc(C(=O)Nc3cc4cc(-c5cnn(C)c5)ccc4cn3)ccn2)CC1 | 8.35
COc1cccc2c1C(=O)c1c(O)c3c(c(O)c1C2=O)CC(O)(C(=O)CO)CC3OC1CC(N)C(O)C(C)O1 (stereo unspecified) + CN1CCN(c2cc(C(=O)Nc3cc4cc(-c5cnn(C)c5)ccc4cn3)ccn2)CC1 | 5.19
CC(CO)NC(=O)c1cc(-c2ccc(Cl)cc2)nn(-c2cnn(C)c2)c1=O (stereo unspecified) + CN1CCN(c2cc(C(=O)Nc3cc4cc(-c5cnn(C)c5)ccc4cn3)ccn2)CC1 | 8.66
CCN1CCN(Cc2ccc(Nc3ncc(F)c(-c4cc(F)c5nc(C)n(C(C)C)c5c4)n3)nc2)CC1 + CNC(=O)c1ccc(Nc2nc(OC3CCCC3)c3c(-c4ccc5nc(C)oc5c4)c[nH]c3n2)c(OC)c1 | 118
